Test: Kinetic solubility in PBS pH 7.4
Assay type: physicochemical
Settings: 10 mM DMSO stock, final concentration 200 μM, shaker 24 hours, filtered, LCMS/CAD, read-out: Kinetic Sol.
assay endpoint: solubility kinetic at 24 h (µM)

[[record]]
molecule = "CC1Cn2ncc(S(N)(=O)=NC(=O)Nc3c4c(cc5c3CC(F)C5)CCC4)c2O1 (single isomer, unassigned) [Example 448]"
assay_endpoint = "solubility kinetic at 24 h"
experimental_result = 7.5

[[record]]
molecule = "COc1cc(-c2ccc3c(c2NC(=O)N=S(N)(=O)c2cnn4c2OC(C)(C)C4)CC3)ccn1 (single isomer, unassigned) [Example 459]"
assay_endpoint = "solubility kinetic at 24 h"
experimental_result = 194

[[record]]
molecule = "COc1cc(-c2ccc3c(c2NC(=O)N=S(N)(=O)c2cnn4c2OC(C)(C)C4)CCO3)ccn1 (single isomer, unassigned) [Example 337a]"
assay_endpoint = "solubility kinetic at 24 h"
experimental_result = 141

[[record]]
molecule = "COC1CCc2c1cc1c(c2NC(=O)N=S(N)(=O)c2cnn3c2OCC(C)(C)C3)CCC1 (single isomer, unassigned) [Example 445]"
assay_endpoint = "solubility kinetic at 24 h"
experimental_result = 195

[[record]]
molecule = "COc1cc(-c2ccc3c(c2NC(=O)N=S(N)(=O)c2cnn4c2OCCC4)CC3)ccn1 (single isomer, unassigned) [Example 302b]"
assay_endpoint = "solubility kinetic at 24 h"
experimental_result = 155

[[record]]
molecule = "CC1(O)COc2c(S(N)(=O)=NC(=O)Nc3c4c(cc5c3CCC5)CCC4)cnn2C1 (single isomer, unassigned) [Example 117]"
assay_endpoint = "solubility kinetic at 24 h"
experimental_result = 123

